Target system: HLA-A*26:01
Protocol description: IEDB peptide-MHC binding, purified MHC/direct/fluorescence; filed as Kd, often an IC50 or EC50 that approximates it; bounds were set here for any values at or beyond the usual limits of such assays
Condition notes: source organism: Vibrio parahaemolyticus
Attribute measured: Kd (µM)
Write down the numeric answer in µM and omit the unit.

Sample EVDEGSDMM — what was its Kd?
4.43

* * *

Exercise: for every item that follows, state its recorded Kd.
Target system: HLA-A*29:02
Protocol description: IEDB peptide-MHC binding, purified MHC/direct/fluorescence; filed as Kd, often an IC50 or EC50 that approximates it; bounds were set here for any values at or beyond the usual limits of such assays
Condition notes: source organism: West Nile virus

Sample AHYEEDVNL — what was its Kd?
≥ 20 µM

Sample LVKTESWIL — what was its Kd?
≥ 20 µM

* * *

Target system: HLA-B*83:01
Protocol description: IEDB peptide-MHC binding, purified MHC/competitive/fluorescence; filed as Kd, often an IC50 or EC50 that approximates it; bounds were set here for any values at or beyond the usual limits of such assays
Condition notes: source organism: Brucella canis ATCC 23365
Attribute measured: Kd

Sample ETVWPFFYA — what was its Kd?
≥ 5 µM

* * *

Target system: HLA-A*02:01
Protocol description: IEDB peptide-MHC binding, purified MHC/competitive/fluorescence; filed as Kd, often an IC50 or EC50 that approximates it; bounds were set here for any values at or beyond the usual limits of such assays
Condition notes: source organism: Escherichia coli B171
Attribute measured: Kd

Sample KAIIDTAQF — what was its Kd?
≥ 20 µM

* * *

Target system: HLA-B*15:01
Protocol description: IEDB peptide-MHC binding, purified MHC/competitive/radioactivity; filed as Kd, often an IC50 or EC50 that approximates it; bounds were set here for any values at or beyond the usual limits of such assays
Condition notes: source organism: Dengue virus 4 Philippines/H241/1956
Attribute measured: Kd (nM)
Write down the numeric answer in nM and omit the unit.

Sample LGKAVHQVF — what was its Kd?
477

Sample TQVGTLALSL — what was its Kd?
57.2

* * *

Target system: HLA-A*03:01
Protocol description: IEDB peptide-MHC binding, purified MHC/competitive/radioactivity; filed as Kd, often an IC50 or EC50 that approximates it; bounds were set here for any values at or beyond the usual limits of such assays
Condition notes: source organism: Dengue virus 4 Philippines/H241/1956
Attribute measured: pKd
Worth noting: pKd values are minus log10 of concentrations stated in mol/L.

Query pKd on HLA-A*03:01 for GLSSRATWAK
7.45

Query pKd on HLA-A*03:01 for VASAGISYK
7.55

Query pKd on HLA-A*03:01 for MVTFKVPHAK
7.10

* * *

Target system: HLA-B*15:17
Protocol description: IEDB peptide-MHC binding, purified MHC/competitive/fluorescence; filed as Kd, often an IC50 or EC50 that approximates it; bounds were set here for any values at or beyond the usual limits of such assays
Condition notes: source organism: Bacillus anthracis str. A0488
Attribute measured: Kd

Sample MFKNFPFFK — what was its Kd?
≥ 20 µM

* * *

Target system: HLA-B*45:01
Protocol description: IEDB peptide-MHC binding, purified MHC/competitive/radioactivity; filed as Kd, often an IC50 or EC50 that approximates it; bounds were set here for any values at or beyond the usual limits of such assays
Condition notes: source organism: Mammarenavirus machupoense
Attribute measured: pKd
Worth noting: pKd values are minus log10 of concentrations stated in mol/L.

Sample TEFQSVTFTM — what was its pKd?
4.87
